assay: Half life in Beagle dog at 1 mg/kg, po or 0.5 mg/kg, iv measured upto 24 hrs by LC-MS/MS analysis; format: ADME, organism-based, Canis lupus familiaris; settings: in vivo
Value Type: half-life (h)
Answers are plain numbers, in h.

O=C(NS(=O)(=O)N1CCC1)c1cc(C2CC2)c(OCC23CC4CC(CC(C4)C2)C3)cc1F :: 5.5

What half-life value was documented for this compound, C[C@@H](c1cc(Cl)cc(Cl)c1)N1CCC(COc2cc(F)c(C(=O)NS(C)(=O)=O)cc2C2CC2)CC1 ?
46

====

target: Sodium channel protein type 1 subunit alpha (Homo sapiens, UniProt P35498); assay: Inhibition of full length human Nav1.1 expressed in HEK cells by whole cell voltage clamp analysis
Value Type: IC50 (nM)
Answers are plain numbers, in nM.

Find the recorded IC50 belonging to C[C@@H](c1cc(Cl)cc(Cl)c1)N1CCC(COc2cc(F)c(C(=O)NS(C)(=O)=O)cc2C2CC2)CC1 and report it.
202

====

target: Sodium channel protein type 5 subunit alpha (Homo sapiens, UniProt Q14524); assay: Inhibition of human Nav1.5 expressed in HEK293 cells incubated for 1 hr in presence of veratridine and anthropleurin-C by sodium influx assay
For each of the compounds below, state its pIC50.
Answers are plain numbers, as −log10 of the molar value.

Worked examples, 3 compounds total:
CS(=O)(=O)NC(=O)c1cc(C2CC2)c(OCC2CCN(Cc3cc(Cl)cc(Cl)c3)CC2)cc1F :: 5.15
O=C(NS(=O)(=O)N1CCC1)c1cc(C2CC2)c(OCC23CC4CC(CC(C4)C2)C3)cc1F :: 6.06
CS(=O)(=O)NC(=O)c1cc(C2CC2)c(OCC2CCN(Cc3ccc(OC(F)(F)F)cc3)CC2)cc1F :: 4.77

Dear reader, for each entry below, please note its pIC50.
1. O=C(NS(=O)(=O)N1CCCC1)c1cc(C2CC2)c(OCC23CC4CC(CC(C4)C2)C3)cc1F
2. CS(=O)(=O)NC(=O)c1cc(C2CC2)c(OCC23CC4CC(CC(C4)C2)C3)cc1F

1: 5.82; 2: 5.96

Can you give me pIC50 for all of these, one by one?
1. CC(C)(c1cc(Cl)cc(Cl)c1)N1CCC(COc2cc(F)c(C(=O)NS(C)(=O)=O)cc2C2CC2)CC1
2. O=C(NS(=O)(=O)C1CC1)c1cc(C2CC2)c(OCC23CC4CC(CC(C4)C2)C3)cc1F

[5.41, 6.59]

====

assay: Half life in Sprague-Dawley rat at 5 mg/kg, po or 1 mg/kg, iv measured upto 8 hrs by LC-MS/MS analysis; assay type: ADME, organism-based; conditions: in vivo
Value Type: half-life (h)
One number for each entry, in h.

O=C(NS(=O)(=O)N1CCC1)c1cc(C2CC2)c(OCC23CC4CC(CC(C4)C2)C3)cc1F :: 0.95

Shift focus to the following entry.
State the recorded half-life for this entry: C[C@@H](c1cc(Cl)cc(Cl)c1)N1CCC(COc2cc(F)c(C(=O)NS(C)(=O)=O)cc2C2CC2)CC1
5

====

target: Sodium channel protein type 4 subunit alpha (Homo sapiens, UniProt P35499); assay: Inhibition of full length human Nav1.4 expressed in HEK cells by whole cell voltage clamp analysis
Sequence (P35499 whole entry): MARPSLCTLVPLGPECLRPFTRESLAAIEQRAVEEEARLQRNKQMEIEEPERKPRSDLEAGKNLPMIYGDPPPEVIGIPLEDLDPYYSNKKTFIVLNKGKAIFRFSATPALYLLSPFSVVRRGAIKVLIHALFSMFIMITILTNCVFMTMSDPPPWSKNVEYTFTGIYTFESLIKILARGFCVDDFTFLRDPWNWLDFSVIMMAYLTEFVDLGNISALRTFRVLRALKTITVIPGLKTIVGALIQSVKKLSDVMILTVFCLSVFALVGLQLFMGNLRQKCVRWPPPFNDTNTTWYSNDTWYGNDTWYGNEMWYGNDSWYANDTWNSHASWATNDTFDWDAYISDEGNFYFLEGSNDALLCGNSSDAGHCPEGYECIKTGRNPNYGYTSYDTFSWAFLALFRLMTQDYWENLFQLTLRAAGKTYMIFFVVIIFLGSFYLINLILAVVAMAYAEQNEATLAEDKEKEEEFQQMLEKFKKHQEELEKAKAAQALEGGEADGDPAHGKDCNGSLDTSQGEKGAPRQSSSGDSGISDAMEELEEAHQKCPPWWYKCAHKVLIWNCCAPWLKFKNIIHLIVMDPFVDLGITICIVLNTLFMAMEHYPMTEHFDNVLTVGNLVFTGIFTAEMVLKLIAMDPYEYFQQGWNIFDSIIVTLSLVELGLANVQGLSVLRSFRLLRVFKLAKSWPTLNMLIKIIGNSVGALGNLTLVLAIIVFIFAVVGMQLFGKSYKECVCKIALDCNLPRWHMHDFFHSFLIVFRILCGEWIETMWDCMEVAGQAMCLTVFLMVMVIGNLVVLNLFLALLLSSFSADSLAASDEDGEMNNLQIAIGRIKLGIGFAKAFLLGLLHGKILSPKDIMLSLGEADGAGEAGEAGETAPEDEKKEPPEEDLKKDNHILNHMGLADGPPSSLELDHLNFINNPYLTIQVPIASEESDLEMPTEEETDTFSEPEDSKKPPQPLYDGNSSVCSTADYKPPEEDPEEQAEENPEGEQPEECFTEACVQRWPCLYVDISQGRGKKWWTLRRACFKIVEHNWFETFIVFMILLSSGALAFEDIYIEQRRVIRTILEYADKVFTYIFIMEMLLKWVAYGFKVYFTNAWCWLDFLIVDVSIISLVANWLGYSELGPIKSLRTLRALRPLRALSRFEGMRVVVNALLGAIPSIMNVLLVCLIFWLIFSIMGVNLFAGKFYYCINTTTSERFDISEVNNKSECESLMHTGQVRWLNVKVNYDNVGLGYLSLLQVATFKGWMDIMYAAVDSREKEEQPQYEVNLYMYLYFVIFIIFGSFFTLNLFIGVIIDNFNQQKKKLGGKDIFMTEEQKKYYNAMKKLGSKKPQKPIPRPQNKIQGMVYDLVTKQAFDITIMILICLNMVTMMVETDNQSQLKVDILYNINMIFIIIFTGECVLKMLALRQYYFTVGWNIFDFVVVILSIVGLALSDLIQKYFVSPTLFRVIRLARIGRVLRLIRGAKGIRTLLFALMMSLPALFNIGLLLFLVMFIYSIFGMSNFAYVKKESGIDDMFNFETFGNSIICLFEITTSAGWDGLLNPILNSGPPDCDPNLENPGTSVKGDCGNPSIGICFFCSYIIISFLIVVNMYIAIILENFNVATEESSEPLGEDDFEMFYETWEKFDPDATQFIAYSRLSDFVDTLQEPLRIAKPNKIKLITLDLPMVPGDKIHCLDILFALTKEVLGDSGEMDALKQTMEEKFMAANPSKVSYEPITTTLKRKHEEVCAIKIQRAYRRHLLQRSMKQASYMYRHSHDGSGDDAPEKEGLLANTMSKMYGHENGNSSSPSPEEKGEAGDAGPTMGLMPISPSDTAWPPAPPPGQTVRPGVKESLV
Value Type: pIC50
Give bare numbers, as −log10 of the molar value.

// map O=C(NS(=O)(=O)N1CCC1)c1cc(C2CC2)c(OCC23CC4CC(CC(C4)C2)C3)cc1F to recorded pIC50 (system: Sodium channel protein type 4 subunit alpha (Homo sapiens, UniProt P35499))
8.07

====

assay: Metabolic stability in human liver microsomes assessed as intrinsic clearance at 1 uM measured upto 60 mins in presence of NADPH by LC-MS/MS analysis; format: ADME, Microsome; settings: read-out: CLH
Provide the recorded CLint scaled at 1 µM for the entries that follow.
Numbers only, in mL/min/kg.

Hi! Can you tell me CLint scaled at 1 µM for each of these compounds?
1. C[C@@H](c1cc(Cl)cc(Cl)c1)N1CCC(COc2cc(F)c(C(=O)NS(C)(=O)=O)cc2C2CC2)CC1
2. CS(=O)(=O)NC(=O)c1cc(C2CC2)c(OCC2CCN(C(=O)c3cc(Cl)cc(Cl)c3)CC2)cc1F

[9.6, 8.6]

// for each compound in input: emit CLint scaled at 1 µM
1. O=C(NS(=O)(=O)C1CC1)c1cc(C2CC2)c(OCC23CC4CC(CC(C4)C2)C3)cc1F
2. O=C(NS(=O)(=O)C1COC1)c1cc(C2CC2)c(OCC23CC4CC(CC(C4)C2)C3)cc1F

1. 18
2. 16

====

target: Cytochrome P450 3A4 (Homo sapiens)
Sequence (P08684 whole entry): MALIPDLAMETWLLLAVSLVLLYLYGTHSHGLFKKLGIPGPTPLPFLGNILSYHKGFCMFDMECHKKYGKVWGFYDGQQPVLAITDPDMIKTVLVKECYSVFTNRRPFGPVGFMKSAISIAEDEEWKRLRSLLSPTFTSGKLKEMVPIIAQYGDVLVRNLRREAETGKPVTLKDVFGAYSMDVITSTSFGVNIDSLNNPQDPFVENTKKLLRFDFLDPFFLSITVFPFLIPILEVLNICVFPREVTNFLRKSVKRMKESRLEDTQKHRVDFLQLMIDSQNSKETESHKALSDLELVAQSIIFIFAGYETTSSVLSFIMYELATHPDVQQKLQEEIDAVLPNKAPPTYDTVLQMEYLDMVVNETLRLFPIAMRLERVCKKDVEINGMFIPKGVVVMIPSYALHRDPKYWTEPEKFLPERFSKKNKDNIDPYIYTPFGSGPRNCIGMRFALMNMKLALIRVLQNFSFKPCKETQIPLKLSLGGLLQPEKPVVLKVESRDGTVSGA
Value Type: IC50

Can you share its IC50? I mean this molecule: O=C(NS(=O)(=O)N1CCC1)c1cc(C2CC2)c(OCC23CC4CC(CC(C4)C2)C3)cc1F
> 10 µM

====

assay: Metabolic stability in human liver microsomes assessed as intrinsic clearance at 1 uM measured upto 60 mins in presence of NADPH by LC-MS/MS analysis; type: ADME, Microsome; settings: read-out: CLH
Class condition met: CLint scaled at 1 µM at least 0.5 L/h/kg. Class condition not met: CLint scaled at 1 µM below 0.5 L/h/kg.

Check this molecule for CLint scaled at 1 µM at or above 0.5 L/h/kg: O=C(NS(=O)(=O)N1CCOCC1)c1cc(C2CC2)c(OCC23CC4CC(CC(C4)C2)C3)cc1F
condition met

Repeat for the following molecule: CS(=O)(=O)NC(=O)c1cc(C2CC2)c(OCC2CCN(Cc3ccccc3)CC2)cc1F
condition not met

Try this molecule next: CS(=O)(=O)NC(=O)c1cc(C2CC2)c(OCC2CCN(Cc3ccc(OC(F)(F)F)cc3)CC2)cc1F
condition met

Quick one: CS(=O)(=O)NC(=O)c1cc(C2CC2)c(OCC2CCN(Cc3ccc(Cl)cc3)CC2)cc1F
condition met

Param item: CS(=O)(=O)NC(=O)c1cc(C2CC2)c(OCC2CN(C(c3ccccc3)c3ccccc3)C2)cc1F
condition not met

Likewise for CS(=O)(=O)NC(=O)c1cc(C2CC2)c(OCC2CCN(C(c3ccccc3)c3ccccc3)CC2)cc1F ?
condition not met

Ok, now CC(C)(c1cc(Cl)cc(Cl)c1)N1CCC(COc2cc(F)c(C(=O)NS(C)(=O)=O)cc2C2CC2)CC1
condition not met

====

target: Sodium channel protein type 5 subunit alpha (Homo sapiens, UniProt Q14524); assay: Inhibition of human Nav1.5 expressed in HEK293 cells incubated for 1 hr in presence of veratridine and anthropleurin-C by sodium influx assay
Please note: IC50 exactly at 1 µM is NOT MET. Only values below 1 µM get MET.

Recorded results for 2 compounds are shown here.
C[C@@H](c1cc(Cl)cc(Cl)c1)N1CCC(COc2cc(F)c(C(=O)NS(C)(=O)=O)cc2C2CC2)CC1 :: NOT MET
O=C(NS(=O)(=O)C1COC1)c1cc(C2CC2)c(OCC23CC4CC(CC(C4)C2)C3)cc1F :: MET

# check: IC50 < 1 µM for CS(=O)(=O)NC(=O)c1cc(C2CC2)c(OCC2CCN(Cc3ccc(Cl)cc3)CC2)cc1F
NOT MET

Same question, CS(=O)(=O)NC(=O)c1cc(C2CC2)c(OCC2CN(Cc3ccccc3)C2)cc1F this time
NOT MET

What do you have for CS(=O)(=O)NC(=O)c1cc(C2CC2)c(OCC2CCN(C(c3ccccc3)c3ccccc3)CC2)cc1F ?
MET

Next: CS(=O)(=O)NC(=O)c1cc(C2CC2)c(OCC2CN(C(c3ccccc3)c3ccccc3)C2)cc1F
NOT MET

Further, for O=C(NS(=O)(=O)N1CCOCC1)c1cc(C2CC2)c(OCC23CC4CC(CC(C4)C2)C3)cc1F ?
MET

Also CS(=O)(=O)NC(=O)c1cc(C2CC2)c(OCC2CCN(C(=O)c3cc(Cl)cc(Cl)c3)CC2)cc1F , if possible.
NOT MET

====

target: Sodium channel protein type 2 subunit alpha (Homo sapiens, UniProt Q99250); test: Inhibition of full length human Nav1.2 expressed in HEK cells by whole cell voltage clamp analysis
Sequence (Q99250 whole entry): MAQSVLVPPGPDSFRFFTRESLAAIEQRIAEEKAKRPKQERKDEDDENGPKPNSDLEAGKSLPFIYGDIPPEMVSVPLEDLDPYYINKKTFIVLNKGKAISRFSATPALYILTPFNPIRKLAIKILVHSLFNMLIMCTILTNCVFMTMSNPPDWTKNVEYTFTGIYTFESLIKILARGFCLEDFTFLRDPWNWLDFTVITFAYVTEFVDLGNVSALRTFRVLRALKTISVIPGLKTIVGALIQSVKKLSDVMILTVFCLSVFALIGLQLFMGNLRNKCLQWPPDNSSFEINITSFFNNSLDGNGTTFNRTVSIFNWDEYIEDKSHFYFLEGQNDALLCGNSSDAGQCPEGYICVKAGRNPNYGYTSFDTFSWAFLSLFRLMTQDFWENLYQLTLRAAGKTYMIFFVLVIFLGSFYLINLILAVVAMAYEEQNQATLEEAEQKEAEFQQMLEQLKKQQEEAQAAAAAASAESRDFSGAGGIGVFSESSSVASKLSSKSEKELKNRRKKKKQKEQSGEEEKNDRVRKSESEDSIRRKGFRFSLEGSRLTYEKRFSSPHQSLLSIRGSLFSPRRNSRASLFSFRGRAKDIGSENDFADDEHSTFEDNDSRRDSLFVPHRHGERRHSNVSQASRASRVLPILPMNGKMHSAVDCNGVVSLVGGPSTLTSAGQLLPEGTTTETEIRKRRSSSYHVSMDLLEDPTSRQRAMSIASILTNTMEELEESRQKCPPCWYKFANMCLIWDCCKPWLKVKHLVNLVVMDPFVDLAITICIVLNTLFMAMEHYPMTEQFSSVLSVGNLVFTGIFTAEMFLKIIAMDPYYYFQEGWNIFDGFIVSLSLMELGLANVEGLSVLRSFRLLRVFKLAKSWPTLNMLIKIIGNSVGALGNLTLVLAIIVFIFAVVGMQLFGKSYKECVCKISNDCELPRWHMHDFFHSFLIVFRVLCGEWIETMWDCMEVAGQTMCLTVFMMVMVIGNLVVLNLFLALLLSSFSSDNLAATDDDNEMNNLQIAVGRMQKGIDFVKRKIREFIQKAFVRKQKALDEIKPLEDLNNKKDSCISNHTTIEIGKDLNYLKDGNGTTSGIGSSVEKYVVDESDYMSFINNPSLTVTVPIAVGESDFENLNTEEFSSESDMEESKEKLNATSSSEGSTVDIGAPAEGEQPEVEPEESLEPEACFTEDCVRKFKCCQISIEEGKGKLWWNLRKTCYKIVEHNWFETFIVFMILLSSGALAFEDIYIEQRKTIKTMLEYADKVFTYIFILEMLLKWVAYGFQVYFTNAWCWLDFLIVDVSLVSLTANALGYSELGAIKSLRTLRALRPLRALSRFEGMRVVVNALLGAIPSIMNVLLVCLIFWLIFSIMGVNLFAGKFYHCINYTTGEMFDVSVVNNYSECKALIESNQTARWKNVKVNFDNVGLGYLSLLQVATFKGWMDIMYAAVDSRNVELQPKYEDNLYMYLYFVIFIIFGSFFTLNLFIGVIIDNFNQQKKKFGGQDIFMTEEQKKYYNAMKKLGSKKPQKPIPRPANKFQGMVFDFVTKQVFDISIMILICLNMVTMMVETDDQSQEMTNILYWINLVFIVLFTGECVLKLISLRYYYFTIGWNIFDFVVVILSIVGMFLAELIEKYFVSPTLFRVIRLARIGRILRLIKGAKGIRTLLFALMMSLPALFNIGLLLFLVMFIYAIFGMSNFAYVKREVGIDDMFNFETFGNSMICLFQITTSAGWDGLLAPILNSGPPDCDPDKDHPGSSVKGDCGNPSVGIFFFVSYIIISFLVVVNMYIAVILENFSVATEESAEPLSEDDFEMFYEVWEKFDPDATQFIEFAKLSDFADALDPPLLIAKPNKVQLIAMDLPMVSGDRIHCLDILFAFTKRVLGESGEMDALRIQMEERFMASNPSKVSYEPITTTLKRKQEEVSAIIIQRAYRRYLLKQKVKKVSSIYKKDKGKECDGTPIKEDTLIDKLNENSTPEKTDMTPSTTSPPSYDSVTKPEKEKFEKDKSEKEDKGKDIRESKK
Answer each item with its documented pIC50.
Numbers only, as −log10 of the molar value.

O=C(NS(=O)(=O)N1CCC1)c1cc(C2CC2)c(OCC23CC4CC(CC(C4)C2)C3)cc1F :: 7.72

Consider the record given below.
Query (compound): C[C@@H](c1cc(Cl)cc(Cl)c1)N1CCC(COc2cc(F)c(C(=O)NS(C)(=O)=O)cc2C2CC2)CC1 ; field requested: pIC50
7.42

====

assay: Oral bioavailability in Sprague-Dawley rat at 5 mg/kg measured upto 8 hrs by LC-MS/MS analysis; type: ADME, organism-based; conditions: in vivo
I'd appreciate it if you could supply bioavailability values for the items below.
One number for each entry, in %.

C[C@@H](c1cc(Cl)cc(Cl)c1)N1CCC(COc2cc(F)c(C(=O)NS(C)(=O)=O)cc2C2CC2)CC1 :: 68

Next molecule, please.
Find the recorded bioavailability belonging to O=C(NS(=O)(=O)N1CCC1)c1cc(C2CC2)c(OCC23CC4CC(CC(C4)C2)C3)cc1F and report it.
34
